- test method notes: recombinant barcode read abundance after kanamycin selection (control-corrected) (log10(CPM+1)); higher = more efficient recombination; sequences stand for … in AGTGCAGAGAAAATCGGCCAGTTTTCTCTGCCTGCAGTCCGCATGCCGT…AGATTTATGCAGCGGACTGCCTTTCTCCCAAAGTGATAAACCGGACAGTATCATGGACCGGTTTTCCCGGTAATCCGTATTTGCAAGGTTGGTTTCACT; site = the 11-nt target
Could you label it true if measured recombinant barcode read abundance (log10) is 0.3 or higher, and false otherwise?

Completed entries (count: 5):
Task: Check the entry GACAAGTCTTGGGTTCTAACCTGTTGCCT (site GACAAGTCTAG) : does recombinant barcode read abundance (log10) equal or exceed 0.3?
Result: true

Task: Check the entry TAATGTACTTGGGTTCTAACCTGTTGCTT (site TAATGTACTAA) : does recombinant barcode read abundance (log10) equal or exceed 0.3?
Result: false

Task: Check the entry CGTGCGGCTTGGGTTCTAACCTGTTGCCT (site CGTGCGGCTAG) : does recombinant barcode read abundance (log10) equal or exceed 0.3?
Result: true

Task: Check the entry TTGGTCACTTGGGTTCTAACCTGTTGCCT (site TTGGTCACTAG) : does recombinant barcode read abundance (log10) equal or exceed 0.3?
Result: true

Task: Check the entry GGCAGTCCTTGGGTTCTAACCTGTTGCTT (site GGCAGTCCTAA) : does recombinant barcode read abundance (log10) equal or exceed 0.3?
Result: true

More entries:
Task: Check the entry AGTAAGCCTTGGGTTCTAACCTGTTGCCA (site AGTAAGCCTTG) : does recombinant barcode read abundance (log10) equal or exceed 0.3?
Result: true

Task: Check the entry TCAATAGCTTGGGTTCTAACCTGTTGCAC (site TCAATAGCTGT) : does recombinant barcode read abundance (log10) equal or exceed 0.3?
Result: true

Task: Check the entry TATATAACTTGGGTTCTAACCTGTTGCCT (site TATAAAACTAG) : does recombinant barcode read abundance (log10) equal or exceed 0.3?
Result: false

Task: Check the entry GATGTATCTTGGGTTCTAACCTGTTGCCT (site GAGGTAGCTAG) : does recombinant barcode read abundance (log10) equal or exceed 0.3?
Result: false

====

- test method notes: recombinant UMI read abundance after kanamycin selection (control-corrected) (log10(CPM+1)); higher = more efficient recombination; extreme values may be limits of the assay; sequences stand for … in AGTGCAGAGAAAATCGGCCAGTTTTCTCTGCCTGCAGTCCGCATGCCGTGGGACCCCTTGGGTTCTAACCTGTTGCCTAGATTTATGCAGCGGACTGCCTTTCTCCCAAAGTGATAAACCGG…AGGTTGGTTTCACT; site = the 11-nt donor
As shown below, each of these sequences has a reported recombinant UMI read abundance (log10) value.
The reply should be a number, written without any unit.

Field: example entries. Status: answers known.
Task: Answer with the recorded recombinant UMI read abundance (log10) of GGGAATCCATGGACCGGTTTTCCCGGTAATCCGTATTTGTT (site TGGAATCCTAA) only.
Result: 0.0126

Task: Answer with the recorded recombinant UMI read abundance (log10) of ATTCGAGCATGGACCGGTTTTCCCGGTAATCCGTATTTGCA (site GTTCGAGCTTG) only.
Result: 0.663

Task: Answer with the recorded recombinant UMI read abundance (log10) of TGGCCTGCATGGACCGGTTTTCCCGGTAATCCGTATTTGGC (site TGGCCCGCTGC) only.
Result: 0

Task: Answer with the recorded recombinant UMI read abundance (log10) of GCAGTCTCATGGACCGGTTTTCCCGGTAATCCGTATTTGCA (site GCAGTCTCTTG) only.
Result: 2.87

Task: Answer with the recorded recombinant UMI read abundance (log10) of ACACATCCATGGACCGGTTTTCCCGGTAATCCGTATTTGGC (site ACACATCCTGG) only.
Result: 0

Task: Answer with the recorded recombinant UMI read abundance (log10) of ATGTAGGCATGGACCGGTTTTCCCGGTAATCCGTATTTGGG (site ATGTAGGCTTC) only.
Result: 0.0205

Task: Answer with the recorded recombinant UMI read abundance (log10) of ACTAGAACATGGACCGGTTTTCCCGGTAATCCGTATTTGCG (site ACTAGAACTCA) only.
Result: 0.0146

Task: Answer with the recorded recombinant UMI read abundance (log10) of TCTGCCCCATGGACCGGTTTTCCCGGTAATCCGTATTTGGG (site TCTGCCCCTCC) only.
Result: 0.00716

Below: the item to evaluate.
Task: Answer with the recorded recombinant UMI read abundance (log10) of ACCGTATCATGGACCGGTTTTCCCGGTAATCCGTATTTGGA (site ACCGTATCTTC) only.
Result: 1.83

====

As shown below, each of these sequences has a reported recombinant UMI read abundance (log10) value.
- test method notes: recombinant UMI read abundance after kanamycin selection (control-corrected) (log10(CPM+1)); higher = more efficient recombination; extreme values may be limits of the assay; sequences stand for … in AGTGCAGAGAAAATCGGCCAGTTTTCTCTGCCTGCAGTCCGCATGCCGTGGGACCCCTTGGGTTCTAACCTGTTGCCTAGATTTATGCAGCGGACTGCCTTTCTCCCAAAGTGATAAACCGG…AGGTTGGTTTCACT; site = the 11-nt donor
The reply should be a number, written without any unit.

Field: example entries. Status: answers known.
Task: Answer with the recorded recombinant UMI read abundance (log10) of GGAATTGCATGGACCGGTTTTCCCGGTAATCCGTATTTGCC (site GGAATTGCTGG) only.
Result: 0

Task: Answer with the recorded recombinant UMI read abundance (log10) of ATGGGCCCATGGACCGGTTTTCCCGGTAATCCGTATTTGAC (site ATGGGCCCTGT) only.
Result: 0.523

Task: Answer with the recorded recombinant UMI read abundance (log10) of TCCATATCATGGACCGGTTTTCCCGGTAATCCGTATTTGTC (site CCCATATCTGA) only.
Result: 0

Task: Answer with the recorded recombinant UMI read abundance (log10) of GGCAATCCATGGACCGGTTTTCCCGGTAATCCGTATTTGAT (site GGCAATCCTAT) only.
Result: 0.192

Task: Answer with the recorded recombinant UMI read abundance (log10) of CGAAGAGCATGGACCGGTTTTCCCGGTAATCCGTATTTGAC (site CGAAGAGCTGT) only.
Result: 2.51

More entries:
Task: Answer with the recorded recombinant UMI read abundance (log10) of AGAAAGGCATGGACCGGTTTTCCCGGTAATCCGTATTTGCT (site AGAAAGGCTGG) only.
Result: 0.262

Task: Answer with the recorded recombinant UMI read abundance (log10) of CCGTCAACATGGACCGGTTTTCCCGGTAATCCGTATTTGCT (site CCGTCAACTAG) only.
Result: 0

Task: Answer with the recorded recombinant UMI read abundance (log10) of TCATACGCATGGACCGGTTTTCCCGGTAATCCGTATTTGCA (site TCATACGCTTG) only.
Result: 2.25

Task: Answer with the recorded recombinant UMI read abundance (log10) of GACAATCCATGGACCGGTTTTCCCGGTAATCCGTATTTGGT (site GACAATCCTAC) only.
Result: 0.0195

Task: Answer with the recorded recombinant UMI read abundance (log10) of CACCGTACATGGACCGGTTTTCCCGGTAATCCGTATTTGCT (site CACCGTACTAG) only.
Result: 2.18

Task: Answer with the recorded recombinant UMI read abundance (log10) of TGGATGACATGGACCGGTTTTCCCGGTAATCCGTATTTGCA (site AGGAAGACTTG) only.
Result: 0.54

Task: Answer with the recorded recombinant UMI read abundance (log10) of AGAGAGGCATGGACCGGTTTTCCCGGTAATCCGTATTTGCT (site AGAGAGGCTAG) only.
Result: 2.19

Task: Answer with the recorded recombinant UMI read abundance (log10) of ATCACACCATGGACCGGTTTTCCCGGTAATCCGTATTTGTC (site ATCACACCTGA) only.
Result: 0

Task: Answer with the recorded recombinant UMI read abundance (log10) of CGGGATCCATGGACCGGTTTTCCCGGTAATCCGTATTTGCT (site CGGGATCCTAG) only.
Result: 0

Task: Answer with the recorded recombinant UMI read abundance (log10) of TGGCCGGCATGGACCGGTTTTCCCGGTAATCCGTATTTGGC (site TGGCCAGCTGC) only.
Result: 0

====

- test method notes: recombinant UMI read abundance after kanamycin selection (control-corrected) (log10(CPM+1)); higher = more efficient recombination; extreme values may be limits of the assay; sequences stand for … in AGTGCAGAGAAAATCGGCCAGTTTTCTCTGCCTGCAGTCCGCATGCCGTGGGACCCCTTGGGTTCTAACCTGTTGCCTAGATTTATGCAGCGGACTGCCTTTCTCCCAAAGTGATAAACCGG…AGGTTGGTTTCACT; site = the 11-nt donor
recorded endpoint: recombinant UMI read abundance (log10)
The reply should be a number, written without any unit.

Field: example entries. Status: answers known.
Task: Answer with the recorded recombinant UMI read abundance (log10) of CATTCGACATGGACCGGTTTTCCCGGTAATCCGTATTTGCG (site CATTCGACTCG) only.
Result: 0.32

Task: Answer with the recorded recombinant UMI read abundance (log10) of CCGTTTACATGGACCGGTTTTCCCGGTAATCCGTATTTGAT (site CCGTTTACTAA) only.
Result: 0.0556

Task: Answer with the recorded recombinant UMI read abundance (log10) of CCTGTTCCATGGACCGGTTTTCCCGGTAATCCGTATTTGTC (site CCTGTTCCTGA) only.
Result: 0

Task: Answer with the recorded recombinant UMI read abundance (log10) of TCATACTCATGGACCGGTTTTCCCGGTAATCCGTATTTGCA (site TCATACTCTTC) only.
Result: 0.0158

Task: Answer with the recorded recombinant UMI read abundance (log10) of ACAGGATCATGGACCGGTTTTCCCGGTAATCCGTATTTGCA (site ACAGTATCTTG) only.
Result: 2.38

Task: Answer with the recorded recombinant UMI read abundance (log10) of AGCTCACCATGGACCGGTTTTCCCGGTAATCCGTATTTGGG (site AGCTCACCTCC) only.
Result: 0.0182

Task: Answer with the recorded recombinant UMI read abundance (log10) of GCATCGGCATGGACCGGTTTTCCCGGTAATCCGTATTTGCC (site GCATCGGCTGG) only.
Result: 0.599

Task: Answer with the recorded recombinant UMI read abundance (log10) of CAAGATTCATGGACCGGTTTTCCCGGTAATCCGTATTTGGG (site CAAGATTCTCC) only.
Result: 0.89

Task: Answer with the recorded recombinant UMI read abundance (log10) of CGTCACTCATGGACCGGTTTTCCCGGTAATCCGTATTTGGC (site CGTCACTCTGC) only.
Result: 2.8

Task: Answer with the recorded recombinant UMI read abundance (log10) of GCACGCGCATGGACCGGTTTTCCCGGTAATCCGTATTTGGT (site GCACGCGCTAC) only.
Result: 1.22

More entries:
Task: Answer with the recorded recombinant UMI read abundance (log10) of GATTGGCCATGGACCGGTTTTCCCGGTAATCCGTATTTGCA (site GAATGGCCTTG) only.
Result: 0

Task: Answer with the recorded recombinant UMI read abundance (log10) of AATTATGCATGGACCGGTTTTCCCGGTAATCCGTATTTGGG (site AATTATGCTTC) only.
Result: 0.0224

Task: Answer with the recorded recombinant UMI read abundance (log10) of AATTATGCATGGACCGGTTTTCCCGGTAATCCGTATTTGAA (site AATTATGCTTG) only.
Result: 0

Task: Answer with the recorded recombinant UMI read abundance (log10) of CTAGTAACATGGACCGGTTTTCCCGGTAATCCGTATTTGAG (site CTAGTAACTCT) only.
Result: 2.89

Task: Answer with the recorded recombinant UMI read abundance (log10) of GATTTGCCATGGACCGGTTTTCCCGGTAATCCGTATTTGGA (site GATTTGCCTTC) only.
Result: 0.0059
